- measurement.protocol: Evaluation of conversion rate to active form in buffer solution (Experimental Example 1)
- Type: physicochemical
- condition.info: pH7.4, 0.5 hr, 37° C., 25 umol/L in buffer solution
Counter-ions that a name gives are not always drawn.
Below, each entry is listed with its recorded Production rate of Alvocidib.

| compound | Production rate of Alvocidib |
| --- | --- |
| CN1CC[C@H](c2c(OC(=O)N(C)CC3CCCCN3)cc(O)c3c(=O)cc(-c4ccccc4Cl)oc23)[C@H](O)C1 (stereo partly shown) [Example 8] | 45.1% |
| CN1CC[C@H](c2c(OC(=O)N(C)C[C@H]3CCCCN3)cc(O)c3c(=O)cc(-c4ccccc4Cl)oc23)[C@H](O)C1 [Example 4] | 34.8% |
| CN1CC[C@H](c2c(OC(=O)N(CCF)CC3CCCCN3)cc(O)c3c(=O)cc(-c4ccccc4Cl)oc23)[C@H](O)C1 (stereo partly shown) [Example 11] | 68.3% |
| CN1CC[C@H](c2c(OC(=O)N(CCCC(F)(F)F)CC3CCCCN3)cc(O)c3c(=O)cc(-c4ccccc4Cl)oc23)[C@H](O)C1 (stereo partly shown) [Example 14] | 71.6% |
| CCN(C[C@@H]1CCCCN1)C(=O)Oc1cc(O)c2c(=O)cc(-c3ccccc3Cl)oc2c1[C@H]1CCN(C)C[C@H]1O [Example 1, ditrifluoroacetate] | 44.9% |
| CCCN(CC1CCCCN1)C(=O)Oc1cc(O)c2c(=O)cc(-c3ccccc3Cl)oc2c1[C@H]1CCN(C)C[C@H]1O (stereo partly shown) [Example 9] | 48.7% |
| CC(C)N(CC1CCCCN1)C(=O)Oc1cc(O)c2c(=O)cc(-c3ccccc3Cl)oc2c1[C@H]1CCN(C)C[C@H]1O (stereo partly shown) [Example 10] | 46.1% |
| CCCN(C[C@@H]1CCCCN1)C(=O)Oc1cc(O)c2c(=O)cc(-c3ccccc3Cl)oc2c1[C@H]1CCN(C)C[C@H]1O [Example 5] | 47.5% |
| CN1CC[C@H](c2c(OC(=O)N(C)C[C@@H]3CCCCN3)cc(O)c3c(=O)cc(-c4ccccc4Cl)oc23)[C@H](O)C1 [Example 3] | 49.0% |
| CN1CC[C@H](c2c(OC(=O)N(CCC(F)(F)F)CC3CCCCN3)cc(O)c3c(=O)cc(-c4ccccc4Cl)oc23)[C@H](O)C1 (stereo partly shown) [Example 13] | 65.8% |
| CCN(CC1CCCCN1)C(=O)Oc1cc(O)c2c(=O)cc(-c3ccccc3Cl)oc2c1[C@H]1CCN(C)C[C@H]1O (stereo partly shown) [Example 7, dihydrochloride] | 50.2% |
| CCCN(C[C@H]1CCCCN1)C(=O)Oc1cc(O)c2c(=O)cc(-c3ccccc3Cl)oc2c1[C@H]1CCN(C)C[C@H]1O [Example 6] | 47.8% |
| CN1CC[C@H](c2c(OC(=O)N(Cc3ccccc3)CC3CCCCN3)cc(O)c3c(=O)cc(-c4ccccc4Cl)oc23)[C@H](O)C1 (stereo partly shown) [Example 15] | 54.7% |
